Heads up, these molecules all have IC50 values measured for Renin (Homo sapiens, UniProt P00797).
Numbered stars: 1 amine (or outer) side, 2 acyl side, 3 side chain; on linkers, the order of the positions; unused ones are H or OH. Square brackets hold non-standard residues; d marks the D form. Peptide text beside a SMILES is read from it. * marks the point of attachment. ξ: configuration not given here. X1 = CC(C)C[C@H](N[*:1])[C@@H](O)C[C@H](C(=O)[*:2])C(C)C; X2 = OC[C@H]1O[C@@H](O)[C@H](N*)[C@H](O)[C@@H]1O; NH(2-picolyl-N-oxide) = [O-][n+]1ccccc1CN*; NMeH = CN[C@@H](Cc1c[nH]cn1)C(=O)O; NHCH2(2-pyridyl) = c1ccc(CN*)nc1; Ile(3ξ) = CCC(C)[C@H](N)C(=O)O; NHC(CH2OH)3 = OCC(CO)(CO)N*; Boc = CC(C)(C)OC(=O)*; CO = O=C([*:1])[*:2]
Kindly provide the numeric value in nM only, without the unit symbol.

The cases that follow already have their IC50 on record.
molecule: CC[C@H](C)[C@H](NC(=O)[C@@H](C[C@H](O)[C@H](CC(C)C)NC(=O)[C@H](Cc1c[nH]cn1)N(C)C(=O)[C@H](Cc1ccccc1)NC(=O)[C@@H]1CCCN1C(=O)N[C@@H]1[C@H](O)[C@H](O)[C@@H](CO)O[C@H]1O)C(C)C)C(=O)NCc1cccc[n+]1[O-] ({X2-CO}-PF[NMeH][X1]I-{NH(2-picolyl-N-oxide)})
assay.target: Renin (Homo sapiens, UniProt P00797)
Sequence (P00797 whole entry): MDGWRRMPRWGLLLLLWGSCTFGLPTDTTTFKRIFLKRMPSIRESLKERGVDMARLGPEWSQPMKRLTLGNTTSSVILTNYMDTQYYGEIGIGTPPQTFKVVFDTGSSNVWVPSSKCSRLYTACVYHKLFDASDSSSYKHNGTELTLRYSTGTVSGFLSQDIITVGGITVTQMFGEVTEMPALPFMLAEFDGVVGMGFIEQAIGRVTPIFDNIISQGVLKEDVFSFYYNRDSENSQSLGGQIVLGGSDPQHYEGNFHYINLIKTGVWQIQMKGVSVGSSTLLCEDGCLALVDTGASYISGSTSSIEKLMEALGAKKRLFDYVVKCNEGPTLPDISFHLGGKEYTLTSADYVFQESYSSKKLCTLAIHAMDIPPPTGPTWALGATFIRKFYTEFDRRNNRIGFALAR
IC50, nM: 1.1

molecule: CCC(C)[C@H](NC(=O)[C@@H](C[C@H](O)[C@H](CC(C)C)NC(=O)[C@H](Cc1cnc[nH]1)N(C)C(=O)[C@H](Cc1ccccc1)NC(=O)[C@@H]1CCCN1C(=O)NC(CO)(CO)CO)C(C)C)C(=O)NCc1cccc[n+]1[O-] (stereo not given in full) ({NHC(CH2OH)3-CO}-PF[NMeH][X1][Ile(3ξ)]-{NH(2-picolyl-N-oxide)})
assay.target: Renin (Homo sapiens, UniProt P00797)
IC50, nM: 0.58

molecule: CC[C@H](C)[C@H](NC(=O)[C@@H](C[C@H](O)[C@H](CC(C)C)NC(=O)[C@H](Cc1cnc[nH]1)N(C)C(=O)[C@H](Cc1ccccc1)NC(=O)[C@@H]1CCCN1C(=O)OC(C)(C)C)C(C)C)C(=O)NCc1cccc[n+]1[O-] (Boc-PF[NMeH][X1]I-{NH(2-picolyl-N-oxide)})
assay.target: Renin (Homo sapiens, UniProt P00797)
IC50, nM: 0.33

molecule: CC[C@H](C)[C@H](NC(=O)[C@@H](C[C@H](O)[C@H](CC(C)C)NC(=O)[C@H](Cc1c[nH]cn1)N(C)C(=O)[C@H](Cc1ccccc1)NC(=O)[C@@H]1CCCN1C(=O)OC(C)(C)C)C(C)C)C(=O)NC(CO)(CO)CO (Boc-PF[NMeH][X1]I-{NHC(CH2OH)3})
assay.target: Renin (Homo sapiens, UniProt P00797)
IC50, nM: 0.26

Supply IC50 measured with Renin (Homo sapiens, UniProt P00797) for CC[C@H](C)[C@H](NC(=O)[C@@H](C[C@H](O)[C@H](CC(C)C)NC(=O)[C@H](Cc1cnc[nH]1)N(C)C(=O)[C@H](Cc1ccccc1)NC(=O)[C@@H]1CCCN1C(=O)NC(CO)(CO)CO)C(C)C)C(=O)NCc1ccccn1 ({NHC(CH2OH)3-CO}-PF[NMeH][X1]I-{NHCH2(2-pyridyl)}) .
0.33
